- Test system: Ba/F3-EGFR-insSVD cells
- ASSAY_INFO: Proliferation assay in BA/F3 (ins SVD) cells (Cell Titer-Glo)
- Assay type: cell-based
- TEST_PARAMETERS: Mus musculus, BaF3, 48 h, Table 10, plated without EGF
pIC50: −log10 of the molar value.
The entries below come with measured pIC50 values attached.

{"MOLECULE": "Cc1c(Cl)cccc1Nc1c(-c2ccncc2OCC(C)(C)N(C)C)[nH]c2c1C(=O)NCC2 [Example 60]", "pIC50": 7.41}
{"MOLECULE": "COc1c(Nc2c(-c3ccncc3OCC(C)(C)OC)[nH]c3c2C(=O)NCC3)ccc(F)c1F [Example 29]", "pIC50": 6.64}
{"MOLECULE": "CN(C)CCOc1cnccc1-c1[nH]c2c(c1Nc1cccc(F)c1)C(=O)NCC2 [Example 5]", "pIC50": 6.25}
{"MOLECULE": "COC(C)(C)COc1cnccc1-c1[nH]c2c(c1Nc1ccccc1Cl)C(=O)NCC2 [Example 39]", "pIC50": 7.56}
{"MOLECULE": "COCCOc1cnccc1-c1[nH]c2c(c1Nc1ccccc1CC(F)F)C(=O)NCC2 [Example 15]", "pIC50": 6.39}
{"MOLECULE": "COc1c(F)cccc1Nc1c(-c2ccncc2OCC(C)(C)OC)[nH]c2c1C(=O)NCC2 [Example 17]", "pIC50": 7.92}
{"MOLECULE": "COCCOc1cnccc1-c1[nH]c2c(c1Nc1ccccc1OC(F)(F)F)C(=O)NCC2 [Example 14]", "pIC50": 5.98}
{"MOLECULE": "COc1c(F)cccc1Nc1c(-c2ccncc2OCC(C)(C)O)[nH]c2c1C(=O)NCC2 [Example 72]", "pIC50": 7.17}
{"MOLECULE": "Cc1c(F)cc(F)cc1Nc1c(-c2ccncc2OCC(C)(C)N(C)C)[nH]c2c1C(=O)NCC2 [Example 62]", "pIC50": 6.78}
{"MOLECULE": "COc1c(F)cccc1Nc1c(-c2ccncc2OCC2CCCCN2C)[nH]c2c1C(=O)NCC2 (stereo not shown) [Example 90]", "pIC50": 7.54}
{"MOLECULE": "COCCOc1cnccc1-c1[nH]c2c(c1Nc1ccccc1OC(F)F)C(=O)NCC2 [Example 11]", "pIC50": 6.45}
{"MOLECULE": "CCc1c(F)cccc1Nc1c(-c2ccncc2OCC(C)(C)OC)[nH]c2c1C(=O)NCC2 [Example 35]", "pIC50": 8.10}
{"MOLECULE": "COCCOc1cnccc1-c1[nH]c2c(c1Nc1cccc(F)c1C)C(=O)NCC2 [Example 20]", "pIC50": 7.32}
{"MOLECULE": "O=C1NCCc2[nH]c(-c3ccncc3OCC3CCOC3)c(Nc3cccc(Cl)c3OC(F)F)c21 (stereo not shown) [Example 79]", "pIC50": 6.93}
{"MOLECULE": "COC(C)(C)COc1cnccc1-c1[nH]c2c(c1Nc1cccc(F)c1Br)C(=O)NCC2 [Example 37]", "pIC50": 7.80}
{"MOLECULE": "COc1c(F)cccc1Nc1c(-c2ccncc2OCCC(C)(C)OC)[nH]c2c1C(=O)NCC2 [Example 57]", "pIC50": 7.83}

This collection of values is drawn from patent US11339157B1.
